Molecular target: corticotropin releasing factor 1 receptor; further: reference of the scale not given here
Experiment: cell-based or functional assay
Ends that are not written are not given here.
Items are presented alongside their recorded CRF1R Emax.
Property measured: CRF1R Emax (%)

Binder	Property measured	Unit abbreviation	Recorded value
ZGPPISIDLPTVLLRKMIEIEKQEKEKQQAANNRLLLDTI (C-terminal amide) [SEQ ID NO 46]	CRF1R Emax	%	17
ZGPPISIDLPLQLLRKMIEIEKQEKEKQQATTNARILARV (C-terminal amide) [SEQ ID NO 144]	CRF1R Emax	%	100
ZGPPISIDLPTSLLRKMIEIEKQEKEKQQAANNRLLLDTI (C-terminal amide) [SEQ ID NO 43]	CRF1R Emax	%	10
ZGPPISIDLPIRLLRKMIEIEKQEKEKQQAANNRLLLDTI (C-terminal amide) [SEQ ID NO 38]	CRF1R Emax	%	11
ZGPPISIDLPFQLLRKMIEIEKQEKEKQQATTNRLLLARV (C-terminal amide) [SEQ ID NO 19]	CRF1R Emax	%	83
ZGPPISIDLPFQLLRKMIEIEKQEKEKQQATTNRLLLDTV (C-terminal amide) [SEQ ID NO 16]	CRF1R Emax	%	98
DNPSLSIDLPLFLLRTLLELARTQSQRERAEQNAIIFASV-NH2 [SEQ ID NO 178]	CRF1R Emax	%	55.7
ZGPPISIDLPGYLLRKMIEIEKQEKEKQQAANNRLLLDTI (C-terminal amide) [SEQ ID NO 63]	CRF1R Emax	%	34
ZGPPISIDLPAHLLRKMIEIEKQEKEKQQAANNRLLLDTI (C-terminal amide) [SEQ ID NO 206]	CRF1R Emax	%	97
ZGPPISIDLPAYLLRKMIEIEKQEKEKQQAANNRLLLDTI (C-terminal amide) [SEQ ID NO 32]	CRF1R Emax	%	94
ZGPPISIDLPFQLLRKMIEIEKQEKEKQQAAANRLLLDTV (C-terminal amide) [SEQ ID NO 15]	CRF1R Emax	%	86
ZGPPISIDLPVYLLRKMIEIEKQEKEKQQAANNRLLLDTI (C-terminal amide) [SEQ ID NO 39]	CRF1R Emax	%	63
